Below, each entry is listed alongside its reported %Inh.
# System: NEK4;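 further: KINOMEscan kinase panel screen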
# condition-notes: concentration: 1 μM, replicates: in singlicate; n = 1
readout-label: %Inh (%)

compound | reading-unit | value-observed
O=c1cc(N2CCOCC2)nc2n(Cc3cccc(Cl)c3)ccn12 [GSK2296823] | % | 16
Cl.Fc1ccccc1COc1ccc(Nc2ncnc3ccc(-c4nnc(C(F)(F)F)o4)cc23)cc1Cl [GW424170] | % | 0
O=C(c1ccc(-c2cc(-c3c[nH]nc3-c3ccccn3)ccn2)cc1)N1CCCC1 [GW792479] | % | 0
COc1cc2c(Nc3cccc(NC(=O)c4ccccc4)c3)ncnc2cc1OCCCN1CCOCC1 [GSK223810] | % | 0
